Attribution: patent US6015701A

Test system: GlcNAc T-V
protocolText: Radiochemical GlcNAc T-V activity assay with synthetic trisaccharide acceptor (purified rat kidney enzyme)
Format: biochemical
setupConditions: added to assay of substantially pure GlcNAc T-V; EDTA at 20 mM; NaCl above about 0.2 M

{"smilesStructure": "[Cl-].[Cl-].[Mg+2]", "effect on apparent enzyme activity": "minimal effect"}
{"smilesStructure": "[Ca+2].[Cl-].[Cl-]", "effect on apparent enzyme activity": "minimal effect"}
{"smilesStructure": "[Cl][Mn][Cl]", "effect on apparent enzyme activity": "minimal effect"}
